# ASSAY_REMARKS: yeast display, Sf9 membrane polyspecificity reagent, FACS + sequencing; frameworks hold sequencing errors
PROPERTY: polyreactivity (PSR sort gate)

Here are 4 sequences together with their reported answers.
QVQLVESGGGLVQAGGSLRLSCAASGRTLASNAMGWFRQSPGKERELVAAINRGGSTYYADSVKGRFTISRDNAMNTVYLQMNSLKPEDTAVYYCAVDRYRYPFDYWGQGTQVTVSS; low polyreactivity
QVQLVESGGGLVQAGGILRLSCAASGFIFTANDMGWYIQAPGKVRELVAAISSGGRTYYADSVKGRFTISRDNAKNSVYFQKNSLKPEDTAVYYCARDLYVRNGQRARYDSWGQGTQVTVSS; high polyreactivity
QVQLVESGGGLVQAGGSLRLSCAASGRTLYINAMGWYRQAPGKERELVAAIRRGGSTYADSVKGRFTISRDNAKNTVYLQMNSLKPEDTAVYYCAADVPRGKYKGDYWGQGTQVTVSS; high polyreactivity
QVQLVYSGGGLVQSGGSLRLSCAASGYIVQPYAMGWYRQAQGKERELVAPISWRGGSTYSADSVKGRFTISRDNAKNTVYLQMYSLKPEDTAVYYFAKDYYYGLEHYGYWGQGTQVTVSS; low polyreactivity

Next sequence, please.
Using the record for QVQLVESGGGLVQEGGSLRLSCAASGSTFSNYMGWYRQAPGKERELVAAITQSGVSTYYADSVKGRFTISRDNAKNTVYLQMNSLKPEDTAVYYCYNYLSGYDYWGQGTQVTVSS , report its polyreactivity (PSR sort gate).
low polyreactivity
